System: Staphylococcus aureus Smith strain
measurement description: Infection treating test
Assay type: in vivo, Staphylococcus aureus (in ddy male mice)
condition summary: sc, 2 h, mice infected intraperitoneally, 5×10^5 cells per mouse, subcutaneous, two hours after infection, read-out: CD50 (the source's name)
value type: ED50 (mg/kg)
The answer is to be given in mg/kg; state only the numeric part.

Example compounds with recorded ED50:
CC(O)C1C(=O)N2C(C(=O)O)=C(Sc3ncccn3)CC12 (stereo not shown) [Example 64] : 0.25
CC(=O)NCCSC1=C(C(=O)O)N2C(=O)[C@H](C(C)O)[C@H]2C1 (stereo partly shown) [PS-3A . Na] : 4
CC(=O)NCCSC1=C(C(=O)O)N2C(=O)C(C(C)O)C2C1 (stereo not shown) [PS-3B . Na, reference compound] : 2

Now for another entry.
Task: Identify the measured ED50 of CC(O)C1C(=O)N2C(C(=O)O)=C(Sc3ccncc3)CC12 (stereo not shown) [Example 60] for Staphylococcus aureus Smith strain.
Output: 0.125

###

Tested on: Proteus sp. P22
measurement description: minimum inhibitory concentration, agar dilution assay
Format: cell-based
condition summary: agar dilution, 35° C., 20 hours; read-out: minimum inhibitory concentration
Reported MIC values for the following compounds.
The answer is to be given in µg/mL; state only the numeric part.

Example compounds with recorded MIC:
CCC1C(=O)N2C(C(=O)O)=C(SCCNC(C)=O)CC12 (stereo not drawn) [PS-5, reference compound] : 25
CC(O)C1C(=O)N2C(C(=O)O)=C(Sc3ccncc3)CC12 (stereo not drawn) [Example 60] : 50
CC(O)[C@H]1C(=O)N2C(C(=O)O)=C(Sc3ccccn3)C[C@H]12 (stereo partly drawn) : 12.5
CCC1C(=O)N2C(C(=O)O)=C(SC3CCCCC3)CC12 (stereo not drawn) [Example 67] : 90
CC(=O)NCCSC1=C(C(=O)O)N2C(=O)C(C(C)C)C2C1 (stereo not drawn) [PS-6, reference compound] : 25
CC(C)C1C(=O)N2C(C(=O)O)=C(Sc3ccccn3)CC12 (stereo not drawn) : 12.5

Now for another entry.
Task: What value of MIC has been reported for the following compound? CCC1C(=O)N2C(C(=O)O)=C(SCCO)CC12 (stereo not drawn) [R1 H, R21 --CH2 CH2 OH]
Output: 50

###

measurement description: Test for concentration in blood (plasma of mouse, bioassay)
Assay type: in vivo
condition summary: sc, subcutaneous, 2 mg/mouse, average of five mice, read-out: Half period
value type: half-life (min)
The answer is to be given in min; state only the numeric part.

Task: What value of half-life has been reported for the following molecule? CC(=O)NCCSC1=C(C(=O)O)N2C(=O)[C@H](C(C)O)[C@H]2C1 (stereo partly shown)
Output: 12

###

System: Enterobacter sp. E8
measurement description: minimum inhibitory concentration, agar dilution assay
Type: cell-based
condition summary: SP.E8, agar dilution, 35° C., 20 hours, read-out: minimum inhibitory concentration
value type: MIC (µg/mL)
The answer is to be given in µg/mL; state only the numeric part.

Example molecules with recorded MIC:
CC(O)C1C(=O)N2C(C(=O)O)=C(Sc3ccncc3)CC12 (centres unmarked) : 0.025
CC(O)[C@H]1C(=O)N2C(C(=O)O)=C(Sc3ccccn3)C[C@H]12 (some centres unmarked) : 25
CC(O)[C@H]1C(=O)N2C(C(=O)O)=C(Sc3ccncc3)C[C@H]12 (some centres unmarked) : 0.78

Now for another entry.
Task: What value of MIC has been reported for the following molecule? CCC1C(=O)N2C(C(=O)O)=C(SCCO)CC12 (centres unmarked)
Output: 3.13

###

System: Proteus sp. P22
measurement description: minimum inhibitory concentration, agar dilution assay
Format: cell-based
condition summary: agar dilution, 35° C., 20 hours; read-out: minimum inhibitory concentration
value type: log10(MIC) (log10 of the value in µg/mL)
Use the decimal logarithm of MIC (µg/mL).

Example compounds with recorded log10(MIC):
CC(O)C1C(=O)N2C(C(=O)O)=C(SCCO)CC12 (stereo not shown) : 2.00
CC(O)C1C(=O)N2C(C(=O)O)=C(Sc3ccccn3)CC12 (stereo not shown) : 1.10
CC(=O)NCCSC1=C(C(=O)O)N2C(=O)[C@H](C(C)O)[C@H]2C1 (stereo partly shown) [PS-3A, reference compound] : 1.30

Task: What value of log10(MIC) has been reported for the following compound? CC(C)C1C(=O)N2C(C(=O)O)=C(Sc3ccccc3)CC12 (stereo not shown)
Output: 2.00

Task: Now consider CC(C)C1C(=O)N2C(C(=O)O)=C(SCCO)CC12 (stereo not shown) .
Output: 1.70

Task: Now consider CC(=O)NCCSC1=C(C(=O)O)N2C(=O)C(C(C)O)C2C1 (stereo not shown) [PS-3B, reference compound] .
Output: 1.23

Task: Now consider CCC1C(=O)N2C(C(=O)O)=C(Sc3ccccn3)CC12 (stereo not shown) .
Output: 0.80

Task: Now consider CC(O)C1C(=O)N2C(C(=O)O)=C(Sc3ncccn3)CC12 (stereo not shown) .
Output: 1.40

Task: Now consider CC(O)[C@H]1C(=O)N2C(C(=O)O)=C(SCCO)C[C@H]12 (stereo partly shown) .
Output: 2.00

Task: Now consider CC(O)[C@H]1C(=O)N2C(C(=O)O)=C(Sc3ncccn3)C[C@H]12 (stereo partly shown) .
Output: 1.10

Task: Now consider CCC1C(=O)N2C(C(=O)O)=C(Sc3ncccn3)CC12 (stereo not shown) .
Output: 1.10

Task: Now consider CC(C)C1C(=O)N2C(C(=O)O)=C(Sc3ncccn3)CC12 (stereo not shown) .
Output: 1.10

Task: Now consider CC(C)C1C(=O)N2C(C(=O)O)=C(SC3CCCCC3)CC12 (stereo not shown) .
Output: 2.00

###

Test system: Escherichia coli RGN 823
measurement description: minimum inhibitory concentration, agar dilution assay
Assay type: cell-based
condition summary: RGN823, agar dilution, 35° C., 20 hours, read-out: minimum inhibitory concentration
value type: log10 of MIC (log10 of the value in µg/mL)
Use the decimal logarithm of MIC (µg/mL).

Example compounds with recorded log10 of MIC:
CC(O)C1C(=O)N2C(C(=O)O)=C(Sc3ccncc3)CC12 (stereo not drawn) : 0.80
CC(C)C1C(=O)N2C(C(=O)O)=C(Sc3ccccc3)CC12 (stereo not drawn) : 1.70
CC(O)C1C(=O)N2C(C(=O)O)=C(Sc3ccccc3)CC12 (stereo not drawn) : 1.40
CC(O)[C@H]1C(=O)N2C(C(=O)O)=C(Sc3ncccn3)C[C@H]12 (stereo partly drawn) : 0.50
CC(O)C1C(=O)N2C(C(=O)O)=C(Sc3ccccn3)CC12 (stereo not drawn) : 0.50
CCC1C(=O)N2C(C(=O)O)=C(SC3CCCCC3)CC12 (stereo not drawn) : 2.26

Now for another entry.
Task: What value of log10 of MIC has been reported for the following compound? CC(=O)NCCSC1=C(C(=O)O)N2C(=O)[C@H](C(C)O)[C@H]2C1 (stereo partly drawn) [PS-3A, reference compound]
Output: 0.70

###

Reported MIC values for the following molecules.
System: Staphylococcus aureus FDA 209P
measurement description: minimum inhibitory concentration, agar dilution assay
Format: cell-based
condition summary: FDA209P, agar dilution, 35° C., 20 hours, read-out: minimum inhibitory concentration
The answer is to be given in µg/mL; state only the numeric part.

CC(=O)NCCSC1=C(C(=O)O)N2C(=O)C(C(C)C)C2C1 (stereo not drawn) [PS-6, reference compound] : 0.1
CC(O)[C@H]1C(=O)N2C(C(=O)O)=C(SC3CCCCC3)C[C@H]12 (stereo partly drawn) : 0.05
CC(C)C1C(=O)N2C(C(=O)O)=C(Sc3ccccc3)CC12 (stereo not drawn) : 0.013
CCC1C(=O)N2C(C(=O)O)=C(SCCO)CC12 (stereo not drawn) [R1 H, R21 --CH2 CH2 OH] : 0.05

Task: What value of MIC has been reported for the following molecule? CC(O)[C@H]1C(=O)N2C(C(=O)O)=C(Sc3ccccc3)C[C@H]12 (stereo partly drawn)
Output: 0.05

Task: Now consider CC(=O)NCCSC1=C(C(=O)O)N2C(=O)C(C(C)O)C2C1 (stereo not drawn) [PS-3B, reference compound] .
Output: 0.07

###

System: Enterobacter sp. E8
measurement description: minimum inhibitory concentration, agar dilution assay
Type: cell-based
condition summary: SP.E8, agar dilution, 35° C., 20 hours, read-out: minimum inhibitory concentration
Experimental: The antibiotic activities shown in Tables I-1 to I-8 above were determined in the following manner. The minimum inhibitory concentrations of the compounds of formula (I-a-1) or (I-b-1) in Tables I-1 to I-7 and the known compounds in Table I-8 on the various microorganisms shown in the above tables were measured by an agar dilution assay method using a brain heart infusion agar medium "Difco" (a product of Difco Laboratories Inc.) […]
value type: MIC (µg/mL)
The answer is to be given in µg/mL; state only the numeric part.

CC(O)[C@H]1C(=O)N2C(C(=O)O)=C(Sc3ccccc3)C[C@H]12 (some centres unmarked) : 100
CC(O)C1C(=O)N2C(C(=O)O)=C(SC3CCCCC3)CC12 (centres unmarked) : 12.5
CC(=O)NCCSC1=C(C(=O)O)N2C(=O)C(C(C)C)C2C1 (centres unmarked) [PS-6, reference compound] : 6.25
CC(C)C1C(=O)N2C(C(=O)O)=C(SCCO)CC12 (centres unmarked) : 12.5

Task: Identify the measured MIC of CC(C)C1C(=O)N2C(C(=O)O)=C(Sc3ncccn3)CC12 (centres unmarked) for Enterobacter sp. E8.
Output: 12.5

Task: Now consider CCC1C(=O)N2C(C(=O)O)=C(Sc3ncccn3)CC12 (centres unmarked) .
Output: 3.13

Task: Now consider CCC1C(=O)N2C(C(=O)O)=C(SCCNC(C)=O)CC12 (centres unmarked) [PS-5, reference compound] .
Output: 1.56

Task: Now consider CC(=O)NCCSC1=C(C(=O)O)N2C(=O)[C@H](C(C)O)[C@H]2C1 (some centres unmarked) [PS-3A, reference compound] .
Output: 5

All figures here come from patent US4337199A.
